# target: T1, BSA-conjugated Aβ heptapeptide VFFAEDC (C-terminal Cys coupled to NSMP-activated BSA);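 further: ELISA of antibody at 10 or 2 µg/ml binding plate-coated BSA–peptide conjugates, detected with HRP anti-human Ig and TMB colour, mock-treated BSA without peptide as negative control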
# T1 construct: also called Peptide 18-23
# T1 peptide: VFFAEDC
# procedure_details: ELISA
reported_metric: Peptide-ratio 18-23/2-7
I only need the number, thanks.

Worked examples, 2 binders total:
| binder | Peptide-ratio 18-23/2-7 |
| --- | --- |
| MS-Roche #7.2.H5 Fab (Fab, V domains shown) VH: QVQLVESGGGLVQPGGSLRLSCAASGFTFSSYAMSWVRQAPGKGLEWVSAINATGRSKYYADSVKGRFTISRDNSKNTLYLQMNSLRAEDTAVYYCARGKGNTHKPYGYVRYFDVWGQGTLVTVSS VL: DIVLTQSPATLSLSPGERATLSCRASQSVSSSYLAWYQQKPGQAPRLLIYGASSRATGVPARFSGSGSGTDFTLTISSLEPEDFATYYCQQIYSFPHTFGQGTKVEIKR | 0.6 |
| MS-Roche #7.12.L1 Fab (Fab, V domains shown) VH: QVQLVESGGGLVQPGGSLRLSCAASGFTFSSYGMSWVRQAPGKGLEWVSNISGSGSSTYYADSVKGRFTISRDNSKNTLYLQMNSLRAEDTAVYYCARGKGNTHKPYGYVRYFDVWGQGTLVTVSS VL: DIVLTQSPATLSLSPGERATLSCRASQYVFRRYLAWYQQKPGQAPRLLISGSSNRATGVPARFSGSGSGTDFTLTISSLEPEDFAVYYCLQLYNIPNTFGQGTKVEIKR | 0.7 |

I'd like to know its Peptide-ratio 18-23/2-7. The binder in question is MS-Roche #7.11.H1 Fab (Fab, V domains shown) VH: QVQLVESGGGLVQPGGSLRLSCAASGFTFSSYAMSWVRQAPGKGLEWVSGINAAGFRTYYADSVKGRFTISRDNSKNTLYLQMNSLRAEDTAVYYCARGKGNTHKPYGYVRYFDVWGQGTLVTVSS VL: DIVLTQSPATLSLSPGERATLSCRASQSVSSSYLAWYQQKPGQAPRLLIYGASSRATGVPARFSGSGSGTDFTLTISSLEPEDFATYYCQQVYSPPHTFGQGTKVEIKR
0.29
